Biological target: 5-HT2C receptor (Homo sapiens, UniProt P28335)
Construct: expressed in transfected cells; PSI mammalian expression vector
Sequence (P28335 33-458): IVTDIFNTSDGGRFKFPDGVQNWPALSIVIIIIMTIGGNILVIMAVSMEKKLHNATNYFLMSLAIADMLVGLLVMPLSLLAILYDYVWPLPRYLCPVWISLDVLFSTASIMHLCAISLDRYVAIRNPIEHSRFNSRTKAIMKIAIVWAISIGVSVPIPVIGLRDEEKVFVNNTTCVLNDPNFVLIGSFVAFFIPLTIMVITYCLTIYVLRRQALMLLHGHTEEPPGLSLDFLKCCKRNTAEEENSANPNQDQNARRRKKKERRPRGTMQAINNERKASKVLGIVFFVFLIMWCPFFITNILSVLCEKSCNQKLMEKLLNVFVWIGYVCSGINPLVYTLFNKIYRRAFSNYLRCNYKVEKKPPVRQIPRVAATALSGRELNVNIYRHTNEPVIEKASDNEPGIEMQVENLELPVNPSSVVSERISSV
Test: R-SAT functional assay of the 5-HT2C receptor (inverse agonism)
Type: cell-based
Conditions: Table 6, 50 ng per well receptor DNA
readout: 5-HT2C Receptor Negative Log EC50

| molecule | system_tested | result |
| --- | --- | --- |
| CN1CCN(CC/C=C2/c3ccccc3Sc3ccc(S(=O)(=O)N(C)C)cc32)CC1 | 5-HT2C receptor (Homo sapiens, UniProt P28335) | No Intrinsic |
| CCN1CCCC1CNC(=O)c1cc(S(N)(=O)=O)ccc1OC (centres unmarked) [Sulpiride] | 5-HT2C receptor (Homo sapiens, UniProt P28335) | No Intrinsic |
| CCN(CC)CCCN1c2ccccc2Sc2ccc(Cl)cc21 | 5-HT2C receptor (Homo sapiens, UniProt P28335) | <5.0 |
| CCNC(=O)N1CCN(CCCC(c2ccc(F)cc2)c2ccc(F)cc2)CC1 [Amperozide] | 5-HT2C receptor (Homo sapiens, UniProt P28335) | No Intrinsic |

---

Molecular target: α2-C4 adrenergic receptor (Homo sapiens)
Construct: expressed in transfected cells; host or cells: NIH 3T3
Test: Single Receptor Format amplification assay, alpha 2 C4
Type: cell-based
Conditions: Table 3; 8-10 concentrations, 3-4 replicates; read-out: Agonist EC50 nM, α2-C4
# EC50 per record follows

| compound | comparative_sign | EC50, nM |
| --- | --- | --- |
| C1COC(NC(C2CC2)C2CC2)=N1 | = | 480 |
| C=CCN1CCc2nc(N)sc2CC1 | > | 10000 |
| NC[C@H](O)c1ccc(O)c(O)c1 [Norepinephrine] | = | 2 |

---

Biological target: α2-C4 adrenergic receptor (Homo sapiens, UniProt P18825)
Construct: expressed in transfected cells; host or cells: NIH 3T3
Sequence (P18825 whole entry): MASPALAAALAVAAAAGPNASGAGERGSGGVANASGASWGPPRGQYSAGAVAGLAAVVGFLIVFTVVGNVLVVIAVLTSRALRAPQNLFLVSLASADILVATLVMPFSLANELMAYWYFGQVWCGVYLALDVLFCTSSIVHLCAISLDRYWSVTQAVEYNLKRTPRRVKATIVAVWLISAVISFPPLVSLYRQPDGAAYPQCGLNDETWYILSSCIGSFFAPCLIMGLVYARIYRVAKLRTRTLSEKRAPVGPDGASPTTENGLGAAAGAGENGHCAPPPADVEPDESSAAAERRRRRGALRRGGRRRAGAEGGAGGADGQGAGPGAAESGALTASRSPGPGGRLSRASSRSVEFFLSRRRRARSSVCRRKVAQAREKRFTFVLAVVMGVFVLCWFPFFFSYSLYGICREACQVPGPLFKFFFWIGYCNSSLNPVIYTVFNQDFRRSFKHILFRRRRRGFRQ
Assay: Single Receptor Format amplification assay, alpha 2 C4
Type: cell-based
Details: relative to other ligands at the given receptor
readout: Max Response, α2-C4

| molecule | readout | result |
| --- | --- | --- |
| NC[C@H](O)c1ccc(O)c(O)c1 [Norepinephrine] | Max Response, α2-C4 | + |
| C1COC(NC(C2CC2)C2CC2)=N1 | Max Response, α2-C4 | + |
| Cc1cccc([C@H](C)c2cnc[nH]2)c1C | Max Response, α2-C4 | ± |
| CC(C)NCC(O)c1ccc(O)c(O)c1 (stereo not shown) | Max Response, α2-C4 | + |

---

Target: 5-HT2A receptor (Homo sapiens, UniProt P28223)
Construct: expressed in transfected cells; host or cells: NIH 3T3 (mouse fibroblasts), transient transfection, PSI expression vector
Sequence (P28223 whole entry): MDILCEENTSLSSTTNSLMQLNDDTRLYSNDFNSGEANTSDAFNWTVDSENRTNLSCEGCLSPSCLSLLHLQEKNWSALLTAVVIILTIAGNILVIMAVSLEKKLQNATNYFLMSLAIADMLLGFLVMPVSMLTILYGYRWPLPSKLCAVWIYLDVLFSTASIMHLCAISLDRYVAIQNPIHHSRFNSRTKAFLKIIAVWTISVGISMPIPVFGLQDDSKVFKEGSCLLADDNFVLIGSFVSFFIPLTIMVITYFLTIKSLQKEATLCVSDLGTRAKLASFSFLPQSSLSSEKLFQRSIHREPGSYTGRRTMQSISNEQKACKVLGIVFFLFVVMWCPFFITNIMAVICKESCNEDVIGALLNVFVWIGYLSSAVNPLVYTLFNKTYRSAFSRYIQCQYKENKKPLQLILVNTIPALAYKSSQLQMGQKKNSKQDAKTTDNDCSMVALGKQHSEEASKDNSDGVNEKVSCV
Test: R-SAT functional assay of the 5-HT2A receptor in NIH 3T3 cells (agonism and inverse agonism)
Assay type: cell-based
Conditions: compounds at 300-500 nM; 50 ng/well receptor DNA; inhibition from basal, referenced to ritanserin (90-100%); mean of duplicates
readout: % INHIBITION, screen for inverse agonism at 5-HT2A receptors (%)

| molecule | system_tested | numeric_result |
| --- | --- | --- |
| O=C(c1ccc(F)cc1)C1CCN(CCn2c(=O)[nH]c3ccccc3c2=O)CC1 [KETANSERIN] | 5-HT2A receptor (Homo sapiens, UniProt P28223) | 82 |
| O=C(CCCN1CCC2(CC1)C(=O)NCN2c1ccccc1)c1ccc(F)cc1 [Spiperone] | 5-HT2A receptor (Homo sapiens, UniProt P28223) | 82 |
| O=C1NCN(c2ccccc2)C12CCN(CCCC(c1ccc(F)cc1)c1ccc(F)cc1)CC2 [Fluspirilene] | 5-HT2A receptor (Homo sapiens, UniProt P28223) | 57 |
| Cc1nc2sccn2c(=O)c1CCN1CCC(=C(c2ccc(F)cc2)c2ccc(F)cc2)CC1 [ritanserin] | 5-HT2A receptor (Homo sapiens, UniProt P28223) | 90 |
| CN(C)CCCSc1ccccc1NC(=O)/C=C/c1ccccc1 [CINANSERIN] | 5-HT2A receptor (Homo sapiens, UniProt P28223) | 75 |
| CN1CCN(C2=Nc3ccccc3Oc3ccc(Cl)cc32)CC1 [Loxapine] | 5-HT2A receptor (Homo sapiens, UniProt P28223) | 77 |
| N[C@@H](Cc1c[nH]c2ccc(O)cc12)C(=O)O [5-hydroxy-Ltryptophan] | 5-HT2A receptor (Homo sapiens, UniProt P28223) | 53 |
| Cc1nc2ccccn2c(=O)c1CCN1CCC(C(=O)c2ccc(F)cc2)CC1 [PIRENPIRONE] | 5-HT2A receptor (Homo sapiens, UniProt P28223) | 92 |
| NCCC1CCCC(CCN)N1 (stereo not drawn) [Mdl 26,630 3HCl] | 5-HT2A receptor (Homo sapiens, UniProt P28223) | 75 |

---

Target: m1 muscarinic receptor (Homo sapiens, UniProt P11229)
Construct: expressed in transfected cells; host or cells: NIH 3T3
Sequence (P11229 whole entry): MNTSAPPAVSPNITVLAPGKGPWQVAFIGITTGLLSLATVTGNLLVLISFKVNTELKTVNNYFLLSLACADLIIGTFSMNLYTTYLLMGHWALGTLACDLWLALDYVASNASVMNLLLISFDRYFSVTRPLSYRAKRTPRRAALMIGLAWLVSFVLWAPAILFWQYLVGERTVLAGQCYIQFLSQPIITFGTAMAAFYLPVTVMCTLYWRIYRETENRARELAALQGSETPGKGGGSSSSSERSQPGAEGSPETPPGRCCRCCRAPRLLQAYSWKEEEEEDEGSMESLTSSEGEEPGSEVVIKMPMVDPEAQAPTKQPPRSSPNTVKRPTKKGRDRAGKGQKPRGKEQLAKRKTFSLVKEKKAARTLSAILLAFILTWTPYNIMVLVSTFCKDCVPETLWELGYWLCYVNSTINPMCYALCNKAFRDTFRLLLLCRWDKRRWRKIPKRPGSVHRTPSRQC
Assay: Single Receptor Format amplification assay, β-galactosidase marker, NIH 3T3 cells transfected with m1
Type: cell-based
Conditions: β-gal amplification; mean ±SE of 2-4 experiments; read-out: Muscarinic Agonists EC50 [μM], m1

| compound | EC50 [µM] |
| --- | --- |
| C[N+](C)(C)CC#CCOC(=O)Nc1cccc(Cl)c1.[Cl-] | 1.1 |

---

Target: FP prostanoid receptor (Homo sapiens, UniProt P43088)
Construct: expressed in transfected cells; host or cells: NIH 3T3
Sequence (P43088 whole entry): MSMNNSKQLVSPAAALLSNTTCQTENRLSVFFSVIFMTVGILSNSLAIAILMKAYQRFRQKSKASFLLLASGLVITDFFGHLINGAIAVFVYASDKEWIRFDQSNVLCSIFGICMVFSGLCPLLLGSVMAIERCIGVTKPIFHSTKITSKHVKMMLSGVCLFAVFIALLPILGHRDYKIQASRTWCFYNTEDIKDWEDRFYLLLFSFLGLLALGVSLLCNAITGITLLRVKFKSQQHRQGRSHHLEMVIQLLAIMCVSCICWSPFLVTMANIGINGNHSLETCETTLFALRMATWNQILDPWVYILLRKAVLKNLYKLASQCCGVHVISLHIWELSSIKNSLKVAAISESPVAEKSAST
Test: Single Receptor Format amplification assay, prostanoid FP
Format: cell-based
Conditions: 7-9 doses in duplicate; read-out: Ligand EC50 nM, FP
readout: EC50

| compound | readout | result |
| --- | --- | --- |
| O=C(O)CCC/C=C\C[C@@H]1[C@@H](/C=C/[C@@H](O)COc2cccc(C(F)(F)F)c2)[C@H](O)C[C@@H]1O (racemic) | EC50 | 2 nM |

---

Target: α2-C4 adrenergic receptor (Homo sapiens)
Construct: expressed in transfected cells; host or cells: NIH 3T3
Experiment: Single Receptor Format amplification assay, alpha 2 C4
Type: cell-based
Conditions: relative to other ligands at the given receptor
readout: Max Response, α2-C4

| compound | readout | result |
| --- | --- | --- |
| N=C(N)NC(=O)Cc1c(Cl)cccc1Cl [Guanfacine] | Max Response, α2-C4 | ± |
| Clc1cccc(Cl)c1N=C1NCCN1 [Clonidine] | Max Response, α2-C4 | ++ |
| Nc1cc(Cl)c(N=C2NCCN2)c(Cl)c1 [p-NH2-Clonidine] | Max Response, α2-C4 | ± |
| Cc1cc(C(C)(C)C)c(O)c(C)c1CC1=NCCN1 [Oxymetazoline] | Max Response, α2-C4 | + |
| COc1cc2nc(N3CCN(C(=O)c4ccco4)CC3)nc(N)c2cc1OC [Prazocin] | Max Response, α2-C4 | ++ |
| C=CCN1CCc2nc(N)sc2CC1 [BHT 920] | Max Response, α2-C4 | +++ |
